# test system: T1, EsCas13d, nuclease-dead (Eubacterium siraeum, UniProt B0MS50, R295A;H300A;R849A;H854A)
# T1 sequence: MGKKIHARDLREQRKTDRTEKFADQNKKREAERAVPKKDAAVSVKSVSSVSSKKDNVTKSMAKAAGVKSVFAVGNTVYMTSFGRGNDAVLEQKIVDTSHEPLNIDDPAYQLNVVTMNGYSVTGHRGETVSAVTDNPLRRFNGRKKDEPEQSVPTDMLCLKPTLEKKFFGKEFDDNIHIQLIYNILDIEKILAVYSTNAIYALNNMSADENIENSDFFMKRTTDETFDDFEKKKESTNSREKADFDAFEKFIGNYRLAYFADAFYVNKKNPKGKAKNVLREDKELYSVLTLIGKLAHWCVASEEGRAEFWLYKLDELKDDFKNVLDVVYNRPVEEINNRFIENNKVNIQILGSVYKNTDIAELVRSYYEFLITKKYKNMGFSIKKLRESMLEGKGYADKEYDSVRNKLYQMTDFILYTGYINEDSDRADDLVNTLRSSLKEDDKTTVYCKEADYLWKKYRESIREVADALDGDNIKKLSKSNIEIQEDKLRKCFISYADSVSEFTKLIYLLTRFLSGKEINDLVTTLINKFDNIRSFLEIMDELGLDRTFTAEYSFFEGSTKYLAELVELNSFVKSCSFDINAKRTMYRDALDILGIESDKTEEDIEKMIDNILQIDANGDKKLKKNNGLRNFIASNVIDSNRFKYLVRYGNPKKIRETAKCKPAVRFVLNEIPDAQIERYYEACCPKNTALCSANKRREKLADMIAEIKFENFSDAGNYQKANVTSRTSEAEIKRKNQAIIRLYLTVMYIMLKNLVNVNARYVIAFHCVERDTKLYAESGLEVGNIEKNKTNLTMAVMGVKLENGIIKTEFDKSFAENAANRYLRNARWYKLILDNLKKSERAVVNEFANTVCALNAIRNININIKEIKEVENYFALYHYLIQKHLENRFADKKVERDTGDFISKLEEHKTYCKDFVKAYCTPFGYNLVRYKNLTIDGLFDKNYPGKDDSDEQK
# assay procedure: crRNA (strand 1, pre-loaded); Mg2+; 40 mM Tris-HCl pH 7.5, 150 mM NaCl, 6 mM MgCl2, 1 mM DTT, 0.1% Tween-20, 0.2 mg/ml BSA; 25 C; 10 min per concentration, then washed
# cond: tags: His6-TwinStrep-SUMO cleaved; N-terminal SNAP kept (SNAP-Surface 488); label: 3' end held by stalled T7 RNA polymerase
measured attribute: pKd
// pKd is dimensionless: -log10 of concentration (M)

target 2 MT 5'PFS AGC 3'PFS UCC (mixed) RNA 1: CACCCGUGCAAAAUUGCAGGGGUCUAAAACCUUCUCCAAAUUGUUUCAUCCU RNA 2: GGGAAUGGAUCCACAUCUACGAAUUCAGCAGGAUGAAACAAUUUGGAGAAGUCCAGAUCGGAAGAGCACACGU    7.64

Now, please, on to the next binder.
query: I am curious: what pKd value has been reported for target 1 C4A,C21U (mixed) RNA 1: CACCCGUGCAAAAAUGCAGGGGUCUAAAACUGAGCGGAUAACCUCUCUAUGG RNA 2: GGGAAUGGAUCCACAUCUACGAAUUCGUACUAUAGAGAGGUUAUCCGAUCACCGAGAUCGGAAGAGCACACGU ?
result: 8.36
